biological target: VEGFR2 (Homo sapiens); construct: recombinant VEGFR2 (amino acids 789 to end); assay: cell-free ADP-Glo kinase assay at […] ATP, with ATP competition at […] ATP
Sequence (P35968 789-1356): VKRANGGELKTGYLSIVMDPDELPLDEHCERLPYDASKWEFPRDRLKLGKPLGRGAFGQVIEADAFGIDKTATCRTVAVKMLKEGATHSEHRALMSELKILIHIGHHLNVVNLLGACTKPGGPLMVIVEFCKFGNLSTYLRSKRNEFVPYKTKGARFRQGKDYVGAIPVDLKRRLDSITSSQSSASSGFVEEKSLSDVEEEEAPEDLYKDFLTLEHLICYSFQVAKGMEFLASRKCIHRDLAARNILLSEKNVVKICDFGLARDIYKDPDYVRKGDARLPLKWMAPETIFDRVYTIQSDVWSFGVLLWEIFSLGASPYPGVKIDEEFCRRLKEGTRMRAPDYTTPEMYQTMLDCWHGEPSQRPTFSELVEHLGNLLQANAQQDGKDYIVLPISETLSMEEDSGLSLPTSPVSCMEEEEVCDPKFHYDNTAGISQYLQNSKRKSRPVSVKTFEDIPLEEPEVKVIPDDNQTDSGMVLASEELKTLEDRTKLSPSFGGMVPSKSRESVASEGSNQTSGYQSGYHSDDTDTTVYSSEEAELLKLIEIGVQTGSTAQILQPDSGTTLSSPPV
ENDPOINT LABEL: IC50

MOLECULE	SYSTEM	MEASURED
Oc1c(I)cc(Cl)c2cccnc12 [clioquinol]	VEGFR2 (Homo sapiens)	34.6 µM
